system: HeLa; test: Cellular uptake in human HeLa cells assessed as fluorescence intensity by FACS analysis relative to control; type: ADME, cell-based; settings: in the assay text read “fluorescence microscopy” for “FACS analysis”
Square brackets hold non-standard residues; d marks the D form. Peptide text beside a SMILES is read from it. * marks the point of attachment. Fluorescein(5-NHCS) = O=C1OC2(c3ccc(O)cc3Oc3cc(O)ccc32)c2cc(NC(=S)*)ccc21; N(7-octenyl)Gly = C=CCCCCCCNCC(=O)O; NAllylGly = C=CCNCC(=O)O; Ava = NCCCCC(=O)O
Drug uptake for assorted compounds
API: value field is a number in %; no unit string.

-- ask For the compound shown here, C=CCN(CC(=O)N1CCC[C@H]1C(=O)N[C@H](C(=O)N[C@@H](C)C(=O)N1CCC[C@H]1C(=O)N1CCC[C@H]1C(=O)N(CC=C)CC(=O)N[C@@H](CCC(=O)O)C(N)=O)[C@@H](C)O)C(=O)[C@@H]1CCCN1C(=O)CCCCNC(=S)Nc1ccc2c(c1)C1(OC2=O)c2ccc(O)cc2Oc2cc(O)ccc21 ({Fluorescein(5-NHCS)-Ava}-P[NAllylGly]PTAPP[NAllylGly]E-NH2) , give the reported Drug uptake.
-- reply 74

-- ask Next compound: C[C@@H]1NC(=O)[C@H]([C@@H](C)O)NC(=O)[C@@H]2CCCN2C(=O)[C@H](CCC(=O)O)NC(=O)CN(C(=O)CCCCNC(=S)Nc2ccc3c(c2)C2(OC3=O)c3ccc(O)cc3Oc3cc(O)ccc32)CC/C=C\CCCCCCN(CC(N)=O)C(=O)[C@H](CCC(=O)O)NC(=O)[C@@H]2CCCN2C(=O)[C@@H]2CCCN2C1=O
-- reply 100

-- ask Next compound: C=CCCCCCCN(CC(=O)N[C@@H](CCC(=O)O)C(=O)N1CCC[C@H]1C(=O)N[C@H](C(=O)N[C@@H](C)C(=O)N1CCC[C@H]1C(=O)N1CCC[C@H]1C(=O)N(CCCCCCC=C)CC(=O)N[C@@H](CCC(=O)O)C(N)=O)[C@@H](C)O)C(=O)CCCCNC(=S)Nc1ccc2c(c1)C1(OC2=O)c2ccc(O)cc2Oc2cc(O)ccc21 ({Fluorescein(5-NHCS)-Ava}-[N(7-octenyl)Gly]EPTAPP[N(7-octenyl)Gly]E-NH2)
-- reply 40

* * *

biological target: Tumor susceptibility gene 101 protein (Homo sapiens); assay: Binding affinity to ubiquitin E2 variant domain of human Tsg101 by fluorescent anisotropy
Numbered stars: 1 amine (or outer) side, 2 acyl side, 3 side chain; on linkers, the order of the positions; unused ones are H or OH. Bridge positions count the residues as written; N and C are the ends. Square brackets hold non-standard residues; d marks the D form. Peptide text beside a SMILES is read from it. * marks the point of attachment. Fluorescein(5-NHCS) = O=C1OC2(c3ccc(O)cc3Oc3cc(O)ccc32)c2cc(NC(=S)*)ccc21; Gly(N-but-3-enyl) = O=C(CN(CCC=[*:3])[*:1])[*:2]; X2 = O=C(CN(CC=[*:3])[*:1])[*:2]; Ava = NCCCCC(=O)O
Readout: pKd
In plain terms, pKd is the concentration in mol/L turned into minus its base-10 logarithm.

Molecule | pKd
C[C@@H]1NC(=O)[C@H]([C@@H](C)O)NC(=O)[C@@H]2CCCN2C(=O)CN(C(=O)[C@@H]2CCCN2C(=O)CCCCNC(=S)Nc2ccc3c(c2)C2(OC3=O)c3ccc(O)cc3Oc3cc(O)ccc32)CCCCC=CCN(CC(N)=O)C(=O)[C@H](CCC(=O)O)NC(=O)[C@@H]2CCCN2C(=O)[C@@H]2CCCN2C1=O | 3.97

Now, please, on to the next molecule.
-- ask # returns recorded pKd (system: Tumor susceptibility gene 101 protein (Homo sapiens)) for C[C@@H]1NC(=O)[C@H]([C@@H](C)O)NC(=O)[C@@H]2CCCN2C(=O)CN(C(=O)[C@@H]2CCCN2C(=O)CCCCNC(=S)Nc2ccc3c(c2)C2(OC3=O)c3ccc(O)cc3Oc3cc(O)ccc32)CC/C=C\CN(CC(=O)N[C@@H](CCC(=O)O)C(N)=O)C(=O)[C@@H]2CCCN2C(=O)[C@@H]2CCCN2C1=O ({Fluorescein(5-NHCS)-Ava}-P[Gly(N-but-3-enyl)]PTAPP[X2]E-NH2; staple (Z) 2-8)
-- reply 3.77

* * *

Biological target: Tumor susceptibility gene 101 protein (Homo sapiens)
Sequence (Q99816 whole entry): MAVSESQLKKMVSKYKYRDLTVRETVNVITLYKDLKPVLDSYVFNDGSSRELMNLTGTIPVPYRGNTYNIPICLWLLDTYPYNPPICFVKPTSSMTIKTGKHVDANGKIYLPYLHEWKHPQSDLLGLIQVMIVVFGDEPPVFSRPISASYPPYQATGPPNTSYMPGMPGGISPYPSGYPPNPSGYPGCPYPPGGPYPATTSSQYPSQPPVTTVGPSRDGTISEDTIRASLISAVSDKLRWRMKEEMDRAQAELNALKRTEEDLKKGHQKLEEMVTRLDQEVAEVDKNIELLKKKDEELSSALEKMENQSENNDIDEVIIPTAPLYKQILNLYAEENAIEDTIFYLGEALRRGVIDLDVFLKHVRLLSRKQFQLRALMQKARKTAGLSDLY
Assay: Binding affinity to ubiquitin E2 variant domain of human Tsg101 by fluorescent anisotropy
Numbered stars: 1 amine (or outer) side, 2 acyl side, 3 side chain; on linkers, the order of the positions; unused ones are H or OH. Bridge positions count the residues as written; N and C are the ends. Square brackets hold non-standard residues; d marks the D form. Peptide text beside a SMILES is read from it. * marks the point of attachment. Fluorescein(5-NHCS) = O=C1OC2(c3ccc(O)cc3Oc3cc(O)ccc32)c2cc(NC(=S)*)ccc21; X1 = O=C(CN(CCCC=[*:3])[*:1])[*:2]; X2 = O=C(CN(CC=[*:3])[*:1])[*:2]; Ava = NCCCCC(=O)O
Readout: Kd

Compound | Experimental Result
C[C@@H]1NC(=O)[C@H]([C@@H](C)O)NC(=O)[C@@H]2CCCN2C(=O)[C@H](CCC(=O)O)NC(=O)CN(C(=O)CCCCNC(=S)Nc2ccc3c(c2)C2(OC3=O)c3ccc(O)cc3Oc3cc(O)ccc32)CCCC/C=C\CN(CC(N)=O)C(=O)[C@H](CCC(=O)O)NC(=O)[C@@H]2CCCN2C(=O)[C@@H]2CCCN2C1=O | > 500 µM

Next item in the queue.
-- ask Please state recorded Kd (tested on Tumor susceptibility gene 101 protein (Homo sapiens)) of C[C@@H]1NC(=O)[C@H]([C@@H](C)O)NC(=O)[C@@H]2CCCN2C(=O)CN(C(=O)[C@@H]2CCCN2C(=O)CCCCNC(=S)Nc2ccc3c(c2)C2(OC3=O)c3ccc(O)cc3Oc3cc(O)ccc32)CCCC=CCN(CC(=O)N[C@@H](CCC(=O)O)C(N)=O)C(=O)[C@@H]2CCCN2C(=O)[C@@H]2CCCN2C1=O ({Fluorescein(5-NHCS)-Ava}-P[X1]PTAPP[X2]E-NH2; staple 2-8)
-- reply > 500 µM

* * *

As shown below, each of these compounds has a reported pKd value.
Biological target: Tumor susceptibility gene 101 protein (Homo sapiens)
Sequence (Q99816 whole entry): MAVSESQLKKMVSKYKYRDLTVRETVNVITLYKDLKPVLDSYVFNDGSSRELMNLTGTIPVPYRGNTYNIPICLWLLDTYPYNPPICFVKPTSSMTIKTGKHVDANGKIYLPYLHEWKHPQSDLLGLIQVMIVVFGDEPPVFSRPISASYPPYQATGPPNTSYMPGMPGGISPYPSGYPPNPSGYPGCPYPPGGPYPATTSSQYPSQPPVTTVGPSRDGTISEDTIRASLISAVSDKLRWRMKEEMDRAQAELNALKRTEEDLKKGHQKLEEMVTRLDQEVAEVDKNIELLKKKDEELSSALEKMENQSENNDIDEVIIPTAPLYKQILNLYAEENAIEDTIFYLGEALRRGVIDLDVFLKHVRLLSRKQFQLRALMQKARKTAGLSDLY
Experiment: Binding affinity to ubiquitin E2 variant domain of human Tsg101 by fluorescent anisotropy
pKd: −log10 of the molar value. Numbered stars: 1 amine (or outer) side, 2 acyl side, 3 side chain; on linkers, the order of the positions; unused ones are H or OH. Bridge positions count the residues as written; N and C are the ends. Square brackets hold non-standard residues; d marks the D form. Peptide text beside a SMILES is read from it. * marks the point of attachment. Fluorescein(5-NHCS) = O=C1OC2(c3ccc(O)cc3Oc3cc(O)ccc32)c2cc(NC(=S)*)ccc21; X5 = O=C(CN(CCCCCC=[*:3])[*:1])[*:2]; X4 = O=C(CN(CCCCC=[*:3])[*:1])[*:2]; X2 = O=C(CN(CC=[*:3])[*:1])[*:2]; Ava = NCCCCC(=O)O

Compound | Experimental Result
C[C@@H]1NC(=O)[C@H]([C@@H](C)O)NC(=O)[C@@H]2CCCN2C(=O)[C@H](CCC(=O)O)NC(=O)CN(C(=O)CCCCNC(=S)Nc2ccc3c(c2)C2(OC3=O)c3ccc(O)cc3Oc3cc(O)ccc32)CCC/C=C\CCCCCCN(CC(N)=O)C(=O)[C@H](CCC(=O)O)NC(=O)[C@@H]2CCCN2C(=O)[C@@H]2CCCN2C1=O | 3.97
C[C@@H]1NC(=O)[C@H]([C@@H](C)O)NC(=O)[C@@H]2CCCN2C(=O)[C@H](CCC(=O)O)NC(=O)CN(C(=O)CCCCNC(=S)Nc2ccc3c(c2)C2(OC3=O)c3ccc(O)cc3Oc3cc(O)ccc32)CCC=CCN(CC(N)=O)C(=O)[C@H](CCC(=O)O)NC(=O)[C@@H]2CCCN2C(=O)[C@@H]2CCCN2C1=O | < 3.30
C[C@@H]1NC(=O)[C@H]([C@@H](C)O)NC(=O)[C@@H]2CCCN2C(=O)CN(C(=O)[C@@H]2CCCN2C(=O)CCCCNC(=S)Nc2ccc3c(c2)C2(OC3=O)c3ccc(O)cc3Oc3cc(O)ccc32)C/C=C\CN(CC(=O)N[C@@H](CCC(=O)O)C(N)=O)C(=O)[C@@H]2CCCN2C(=O)[C@@H]2CCCN2C1=O ({Fluorescein(5-NHCS)-Ava}-P[X2]PTAPP[X2]E-NH2; staple (Z) 2-8) | 3.66

-- ask Any idea what pKd was measured for C[C@@H]1NC(=O)[C@H]([C@@H](C)O)NC(=O)[C@@H]2CCCN2C(=O)CN(C(=O)[C@@H]2CCCN2C(=O)CCCCNC(=S)Nc2ccc3c(c2)C2(OC3=O)c3ccc(O)cc3Oc3cc(O)ccc32)CCCCC/C=C\CN(CC(=O)N[C@@H](CCC(=O)O)C(N)=O)C(=O)[C@@H]2CCCN2C(=O)[C@@H]2CCCN2C1=O ({Fluorescein(5-NHCS)-Ava}-P[X5]PTAPP[X2]E-NH2; staple (Z) 2-8) ?
-- reply < 3.30

-- ask And then C[C@@H]1NC(=O)[C@H]([C@@H](C)O)NC(=O)[C@@H]2CCCN2C(=O)[C@H](CCC(=O)O)NC(=O)CN(C(=O)CCCCNC(=S)Nc2ccc3c(c2)C2(OC3=O)c3ccc(O)cc3Oc3cc(O)ccc32)CCC/C=C\CN(CC(N)=O)C(=O)[C@H](CCC(=O)O)NC(=O)[C@@H]2CCCN2C(=O)[C@@H]2CCCN2C1=O , what is it?
-- reply < 3.30

-- ask Please give the result for C[C@@H]1NC(=O)[C@H]([C@@H](C)O)NC(=O)[C@@H]2CCCN2C(=O)CN(C(=O)[C@@H]2CCCN2C(=O)CCCCNC(=S)Nc2ccc3c(c2)C2(OC3=O)c3ccc(O)cc3Oc3cc(O)ccc32)CCCC/C=C/CN(CC(=O)N[C@@H](CCC(=O)O)C(N)=O)C(=O)[C@@H]2CCCN2C(=O)[C@@H]2CCCN2C1=O ({Fluorescein(5-NHCS)-Ava}-P[X4]PTAPP[X2]E-NH2; staple (E) 2-8) too.
-- reply < 3.30
